compounds and their reported pIC50
target_entity: PCSK9 (Homo sapiens (Human), UniProt Q8NBP7)
Sequence (Q8NBP7 153-692): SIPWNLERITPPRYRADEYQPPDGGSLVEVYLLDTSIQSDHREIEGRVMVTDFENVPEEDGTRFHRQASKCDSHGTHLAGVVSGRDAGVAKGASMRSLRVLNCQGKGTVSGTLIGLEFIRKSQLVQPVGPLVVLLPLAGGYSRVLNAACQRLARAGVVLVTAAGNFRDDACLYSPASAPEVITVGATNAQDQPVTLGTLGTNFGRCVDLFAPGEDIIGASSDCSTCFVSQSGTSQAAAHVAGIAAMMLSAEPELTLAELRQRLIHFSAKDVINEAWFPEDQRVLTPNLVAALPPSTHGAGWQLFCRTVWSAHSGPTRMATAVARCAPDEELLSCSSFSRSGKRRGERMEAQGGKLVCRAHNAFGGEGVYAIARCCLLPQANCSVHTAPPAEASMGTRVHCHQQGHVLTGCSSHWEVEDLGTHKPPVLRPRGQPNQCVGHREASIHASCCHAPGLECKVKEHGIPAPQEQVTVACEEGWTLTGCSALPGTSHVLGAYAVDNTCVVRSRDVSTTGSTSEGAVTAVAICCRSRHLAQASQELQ
protocol_description: PCSK9 Alexa FRET Plus assay (displacement of AlexaFluor647 tagged cyclic peptide Reagent B)
Type: binding
applied_conditions: Alexa FRET Plus, 0.5 nM PCSK9, 960 nM AF cyclic peptide Reagent B; read-out: IC50
pIC50: −log10 of the molar value. Starred links: 1 amine or outer side, 2 acyl side, 3 side chain; linkers in the order of their positions; H or OH if unused. Positions of bridges follow the written chain, without caps; N, C: chain ends. Non-standard residues stand in square brackets, D forms with d. Residues, ends and D or L forms follow the SMILES beside them. *: point of attachment. Trp(5-F) = N[C@@H](Cc1c[nH]c2ccc(F)cc12)C(=O)O; Phe(4-CH2NH2) = NCc1ccc(C[C@H](N)C(=O)O)cc1; Pro(cis-4-F) = O=C(O)[C@@H]1C[C@H](F)CN1; AEF = NCCOc1ccc(C[C@H](N)C(=O)O)cc1; Glutaryl = O=C(CCCC(=O)[*:2])[*:1]; αMeP = C[C@@]1(C(=O)O)CCCN1; Glycolyl = O=C(CO)*

COc1ccc(C[C@@H]2NC(=O)[C@H]([C@@H](C)O)NC(=O)[C@@H]3C[C@H](F)CN3C(=O)[C@H](Cc3c[nH]c4ccc(F)cc34)NC(=O)[C@H](Cc3c[nH]c4ccc(F)cc34)NC(=O)[C@@H](C)NC(=O)[C@H](CCCCN)NC(=O)[C@@H](NC(=O)CO)CC(=O)NCCOc3ccc(cc3)C[C@@H](C(N)=O)NC(=O)[C@]3(C)CCCN3C2=O)cc1 [Compound 115] (Glycolyl-DK[dA][Trp(5-F)][Trp(5-F)][Pro(cis-4-F)]TY(Me)[αMeP][AEF]-NH2; lactam 1-10) :: 5.30 to 6.30
NC(=O)[C@@H]1Cc2ccc(cc2)CNC(=O)CCCC(=O)NCC(=O)N[C@@H](Cc2c[nH]c3ccc(F)cc23)C(=O)N[C@@H](Cc2c[nH]c3ccc(F)cc23)C(=O)N[C@@H](CC(=O)O)C(=O)N[C@@H](Cc2cnc[nH]2)C(=O)N[C@@H](Cc2ccc(O)cc2)C(=O)N1 [Compound 437] (G[Trp(5-F)][Trp(5-F)]DHY[Phe(4-CH2NH2)]-NH2; linker N-7 via Glutaryl) :: 6.30 to 7.00

Now for a further compound.
Input: Provide the documented pIC50 with PCSK9 (Homo sapiens (Human), UniProt Q8NBP7) as the system for CCCCCCCCCCCCCCCC(=O)N[C@@H](CCC(=O)NCCOCCOCC(=O)NCCOCCOCC(=O)NCCCC[C@H](NC(C)=O)C(=O)NCCOCCOCC(=O)N[C@@H]1CSCc2cccc(c2)CSC[C@@H](C(N)=O)NC(=O)[C@]2(C)CCCN2C(=O)[C@H](Cc2ccc(O)cc2)NC(=O)[C@H]([C@@H](C)O)NC(=O)N2C[C@@H](F)C[C@H]2C(=O)[C@H](Cc2c[nH]c3ccc(F)cc23)NC(=O)[C@H](Cc2c[nH]c3ccc(F)cc23)NC(=O)[C@@H](C)NC(=O)[C@H](C)NC1=O)C(=O)O [Compound 135]
Output: 7.00 to 10.00

* * *

Quick reference: pIC50 of the listed items.
target_entity: PCSK9 (Homo sapiens (Human))
protocol_description: PCSK9 Alexa FRET Standard assay (displacement of AlexaFluor647 tagged cyclic peptide Reagent A)
Format: binding
applied_conditions: PCSK9 Alexa FRET Standard assay, 0.5 nM PCSK9, 20 nM AF cyclic peptide Reagent A; read-out: IC50
pIC50: −log10 of the molar value. Starred links: 1 amine or outer side, 2 acyl side, 3 side chain; linkers in the order of their positions; H or OH if unused. Positions of bridges follow the written chain, without caps; N, C: chain ends. Non-standard residues stand in square brackets, D forms with d. Residues, ends and D or L forms follow the SMILES beside them. Ala(imidazol-2-yl) = N[C@@H](Cc1ncc[nH]1)C(=O)O; Trp(5-F) = N[C@@H](Cc1c[nH]c2ccc(F)cc12)C(=O)O; Trp(7-aza) = N[C@@H](Cc1c[nH]c2ncccc12)C(=O)O; X4 = O=C(CCSCc1cccc(CSCCN[*:1])c1)[*:2]; mXylylene = c1cc(C[*:1])cc(C[*:2])c1; AEF = NCCOc1ccc(C[C@H](N)C(=O)O)cc1; Glutaryl = O=C(CCCC(=O)[*:2])[*:1]; Lys(Me2) = CN(C)CCCC[C@H](N)C(=O)O; αMeP = C[C@@]1(C(=O)O)CCCN1; Mpa = O=C(O)CCS

COc1ccc(C[C@@H]2NC(=O)[C@H](Cc3ncc[nH]3)NC(=O)[C@H](CC(=O)O)NC(=O)[C@H](Cc3c[nH]c4ccc(F)cc34)NC(=O)[C@H](Cc3c[nH]c4ccc(F)cc34)NC(=O)[C@@H](C)NC(=O)[C@H](CCCCN(C)C)NC(=O)CCSCc3cccc(c3)CSCCNC(=O)[C@]3(C)CCCN3C2=O)cc1 [Compound 463] (cyclo(D[Ala(imidazol-2-yl)]Y(Me)[αMeP][X4][Lys(Me2)][dA][Trp(5-F)][Trp(5-F)])) :: 6.00 to 7.00
NCCCC[C@@H]1NC(=O)CCSCc2cccc(c2)CSC[C@@H](C(N)=O)NC(=O)[C@@H]2CCCN2C(=O)[C@H](Cc2c[nH]c3ncccc23)NC(=O)[C@H](Cc2c[nH]cn2)NC(=O)[C@H](CC(=O)O)NC(=O)[C@H](Cc2c[nH]c3ccc(F)cc23)NC(=O)[C@H](Cc2c[nH]c3ccc(F)cc23)NC(=O)CNC1=O [Compound 235] ([Mpa]KG[Trp(5-F)][Trp(5-F)]DH[Trp(7-aza)]PC-NH2; linker 1-10 via mXylylene) :: 4.30 to 4.68

Please look at the following compound next.
Input: Endpoint output: pIC50 of COc1ccc(C[C@@H]2NC(=O)[C@H](Cc3cnc[nH]3)NC(=O)[C@H](CC(=O)O)NC(=O)[C@H](Cc3c[nH]c4ccc(F)cc34)NC(=O)[C@H](Cc3c[nH]c4ccc(F)cc34)NC(=O)[C@@H](C)NC(=O)CCCC(=O)NCCOc3ccc(cc3)C[C@@H](C(N)=O)NC(=O)[C@]3(C)CCCN3C2=O)cc1 [Compound 400] ([dA][Trp(5-F)][Trp(5-F)]DHY(Me)[αMeP][AEF]-NH2; linker N-8 via Glutaryl) . Value?
Output: 4.92 to 6.00

* * *

target_entity: PCSK9 (Homo sapiens (Human), UniProt Q8NBP7)
protocol_description: PCSK9 Alexa FRET Standard assay (displacement of AlexaFluor647 tagged cyclic peptide Reagent A)
Assay type: binding
applied_conditions: PCSK9 Alexa FRET Standard assay, 0.5 nM PCSK9, 20 nM AF cyclic peptide Reagent A; read-out: IC50
pIC50: −log10 of the molar value. Starred links: 1 amine or outer side, 2 acyl side, 3 side chain; linkers in the order of their positions; H or OH if unused. Positions of bridges follow the written chain, without caps; N, C: chain ends. Non-standard residues stand in square brackets, D forms with d. Residues, ends and D or L forms follow the SMILES beside them. Trp(5-F) = N[C@@H](Cc1c[nH]c2ccc(F)cc12)C(=O)O; Phe(4-CH2NH2) = NCc1ccc(C[C@H](N)C(=O)O)cc1; Bip = N[C@@H](Cc1ccc(-c2ccccc2)cc1)C(=O)O; Pro(cis-4-F) = O=C(O)[C@@H]1C[C@H](F)CN1; X13 = O=C(CCCCc1cccc(CCCCN[*:1])c1)[*:2]; X4 = O=C(CCSCc1cccc(CSCCN[*:1])c1)[*:2]; X23 = CC[C@@]1(C(=O)[*:2])CCCN1[*:1]; mXylylene = c1cc(C[*:1])cc(C[*:2])c1; Hyp = O=C(O)[C@@H]1C[C@@H](O)CN1; PEG4 = NCCOCCOCCOCCOCCC(=O)O; Suc = O=C(CCC(=O)[*:2])[*:1]; αMeP = C[C@@]1(C(=O)O)CCCN1; Mpa = O=C(O)CCS
measured_endpoint: pIC50

Below are worked cases with known answers.
CC(=O)N[C@@H]1CCCC/C=C\CO[C@H]2C[C@@H](C(N)=O)N(C2)C(=O)[C@H](Cc2ccc(O)cc2)NC(=O)[C@H](Cc2cnc[nH]2)NC(=O)[C@H](CC(=O)O)NC(=O)[C@H](Cc2c[nH]c3ccc(F)cc23)NC(=O)[C@H](Cc2c[nH]c3ccc(F)cc23)NC(=O)CNC1=O :: 7.00 to 9.96
COc1ccc(C[C@@H]2NC(=O)[C@H](Cc3cnc[nH]3)NC(=O)[C@H](CC(=O)O)NC(=O)[C@H](Cc3c[nH]c4ccc(F)cc34)NC(=O)[C@H](Cc3c[nH]c4ccc(F)cc34)NC(=O)[C@H](C)NC(=O)[C@H](NC(C)=O)CCCc3cn(nn3)-c3ccc(cc3)C[C@@H](C(N)=O)NC(=O)[C@]3(C)CCCN3C2=O)cc1 :: 4.30 to 4.68
COc1ccc(C[C@@H]2NC(=O)[C@H](C(C)C)NC(=O)[C@@H]3CCCN3C(=O)[C@H](Cc3c[nH]c4ccc(F)cc34)NC(=O)[C@H](Cc3c[nH]c4ccc(F)cc34)NC(=O)[C@@H](C)NC(=O)[C@H](CCCCN)NC(=O)CCSCc3cccc(c3)CSC[C@@H](C(N)=O)NC(=O)[C@]3(C)CCCN3C2=O)cc1 [Compound 009] ([Mpa]K[dA][Trp(5-F)][Trp(5-F)]PVY(Me)[αMeP]C-NH2; linker 1-10 via mXylylene) :: 4.30 to 4.68
NCCCC[C@@H]1NC(=O)CCSCc2cccc(c2)CSC[C@@H](C(N)=O)NC(=O)[C@@H]2CCCN2C(=O)[C@H](Cc2ccc(O)cc2)NC(=O)[C@H](Cc2c[nH]cn2)NC(=O)[C@H](CC(=O)O)NC(=O)[C@H](Cc2c[nH]c3ccc(F)cc23)NC(=O)[C@H](Cc2ccc(-c3ccccc3)cc2)NC(=O)CNC1=O [Compound 210] ([Mpa]KG[Bip][Trp(5-F)]DHYPC-NH2; linker 1-10 via mXylylene) :: 4.92 to 6.00
CC[C@@]12CCCN1C(=O)[C@H](Cc1ccc(O)cc1)NC(=O)[C@H](Cc1cnc[nH]1)NC(=O)[C@H](CC(=O)O)NC(=O)[C@H](Cc1c[nH]c3ccc(F)cc13)NC(=O)[C@H](Cc1c[nH]c3ccc(F)cc13)NC(=O)CNC(=O)[C@H](CCCCN)NC(=O)CCSCc1cccc(c1)CSC[C@@H](C(N)=O)NC2=O [Compound 378] ([Mpa]KG[Trp(5-F)][Trp(5-F)]DHY[X23]C-NH2; linker 1-10 via mXylylene) :: 7.00 to 9.96
C[C@@]12CCCN1C(=O)[C@H](Cc1ccc(O)cc1)NC(=O)[C@H](Cc1cnc[nH]1)NC(=O)[C@H](CC(=O)O)NC(=O)[C@H](Cc1c[nH]c3ccc(F)cc13)NC(=O)[C@H](Cc1c[nH]c3ccc(F)cc13)NC(=O)CNC(=O)[C@H](CCCCNC(=O)CCOCCOCCOCCOCCN)NC(=O)CCSCc1cccc(c1)CSC[C@@H](C(N)=O)NC2=O [Compound 485] ([Mpa]K(PEG4)G[Trp(5-F)][Trp(5-F)]DHY[αMeP]C-NH2; linker 1-10 via mXylylene) :: 7.00 to 9.96
COc1ccc(C[C@@H]2NC(=O)[C@@H]([C@H](C)O)NC(=O)[C@@H]3C[C@@H](O)CN3C(=O)[C@H](Cc3c[nH]c4ccc(F)cc34)NC(=O)[C@H](Cc3c[nH]c4ccc(F)cc34)NC(=O)[C@@H](C)NC(=O)[C@H](CCCCN)NC(=O)CCSCc3cccc(c3)CSCCNC(=O)[C@]3(C)CCCN3C2=O)cc1 [Compound 084] (cyclo([Hyp][dT]Y(Me)[αMeP][X4]K[dA][Trp(5-F)][Trp(5-F)])) :: 6.00 to 7.00
COc1ccc(C[C@@H]2NC(=O)[C@H]([C@@H](C)O)NC(=O)[C@@H]3C[C@H](F)CN3C(=O)[C@H](Cc3c[nH]c4ccc(F)cc34)NC(=O)[C@H](Cc3c[nH]c4ccc(F)cc34)NC(=O)[C@@H](C)NC(=O)[C@H](CCCCN)NC(=O)[C@@H](NC(C)=O)CCC/C=C\Cc3ccc(cc3)C[C@@H](C(N)=O)NC(=O)[C@]3(C)CCCN3C2=O)cc1 :: 4.30 to 4.68
COc1ccc(C[C@@H]2NC(=O)[C@H]([C@@H](C)O)NC(=O)[C@@H]3C[C@H](F)CN3C(=O)[C@H](Cc3c[nH]c4ccc(F)cc34)NC(=O)[C@H](Cc3c[nH]c4ccc(F)cc34)NC(=O)[C@@H](C)NC(=O)[C@H](CCCCN)NC(=O)CCC(=O)NCc3ccc(cc3)C[C@@H](C(N)=O)NC(=O)[C@]3(C)CCCN3C2=O)cc1 [Compound 097] (K[dA][Trp(5-F)][Trp(5-F)][Pro(cis-4-F)]TY(Me)[αMeP][Phe(4-CH2NH2)]-NH2; linker N-9 via Suc) :: 7.00 to 9.96

Input: I would be grateful if you could share the reported pIC50 for COc1ccc(C[C@@H]2NC(=O)[C@H]([C@@H](C)O)NC(=O)[C@@H]3CCCN3C(=O)[C@H](Cc3c[nH]c4ccc(F)cc34)NC(=O)[C@H](Cc3c[nH]c4ccc(F)cc34)NC(=O)[C@@H](C)NC(=O)[C@H](C)NC(=O)CCCCc3cccc(c3)CCCCNC(=O)[C@@H]3CCCN3C2=O)cc1 [Compound 047] (cyclo(A[dA][Trp(5-F)][Trp(5-F)]PTY(Me)P[X13])) .
Output: 6.00 to 7.00
